The following molecules are listed with their measured GI50, drug alone values.
# System: ACHN
# Assay method text: GI50, drug alone; higher = less potent
# Condition summary: treatment: drug alone; 5 days
Write down the numeric answer in nM and omit the unit.

>  <Compound structure string>
CS(=O)(=O)N1CCN(Cc2cc3nc(-c4cccc5[nH]ncc45)nc(N4CCOCC4)c3s2)CC1

>  <Target or test system>
ACHN

>  <Unit descriptor>
nM

>  <Recorded number>
690

$$$$
>  <Compound structure string>
CCN1CCN(Cc2ccc(-c3cc4c(N[C@H](C)c5ccccc5)ncnc4[nH]3)cc2)CC1

>  <Target or test system>
ACHN

>  <Unit descriptor>
nM

>  <Recorded number>
415

$$$$
>  <Compound structure string>
COc1cc(Nc2ncc(F)c(Nc3ccc4c(n3)N(COP(=O)(O)O)C(=O)C(C)(C)O4)n2)cc(OC)c1OC

>  <Target or test system>
ACHN

>  <Unit descriptor>
nM

>  <Recorded number>
1220

$$$$

Then this molecule:
So what's the measured GI50, drug alone for this one? CN(C)C/C=C/C(=O)Nc1cc2c(Nc3ccc(F)c(Cl)c3)ncnc2cc1O[C@H]1CCOC1
162
